system: Sphaerotheca fuliginea; test: Example D: in vivo preventive test on Sphaerotheca fuliginea (powdery mildew on cucurbits); conditions: Podosphaera fuliginea, 360 h, read-out: efficacy
Measured Property: pest or weed control at 500 ppm

Please fill in: pest or weed control at 500 ppm reported for C#CCOc1ccc(C(O)(Cn2cncc2C#N)C2(F)CC2)c(F)c1 (stereo not shown) = 90 to 100%

Please fill in: pest or weed control at 500 ppm reported for N#Cc1cncn1CC(O)(c1ccc(-c2ccc(Cl)cc2)cc1Cl)C1(F)CC1 (stereo not shown) = 90 to 100%

Please fill in: pest or weed control at 500 ppm reported for N#Cc1cncn1CC(O)(C#CC1CCCCC1)C1(Cl)CC1 (stereo not shown) = 80 to 89%

Please fill in: pest or weed control at 500 ppm reported for C#Cc1ccc(C(O)(Cn2cncc2C#N)C2(F)CC2)c(Cl)c1 (stereo not shown) = 90 to 100%

* * *

test: Log P by HPLC on reversed phase columns (EEC directive 79/831 Annex V.A8; methods [a], [b], [c]); assay type: physicochemical
Measured Property: LogP

Please fill in: LogP reported for N#Cc1cncn1CC(O)c1ccc(Oc2ccc(Cl)nc2)cc1C(F)(F)F (centres unmarked) = 2.59^[a]

Please fill in: LogP reported for N#Cc1cncn1CC(O)(c1ccc(Cl)cc1Cl)C1(F)CC1 (centres unmarked) = 2.51^[a]

Please fill in: LogP reported for N#Cc1cncn1CC(O)(c1ccc(C#CC2CCCC2)cc1F)C1(Cl)CC1 (centres unmarked) = 3.99^[a]

Please fill in: LogP reported for CC(C)(C)C(O)(Cn1cncc1C#N)c1ccc(F)cc1 (centres unmarked) = 2.51^[a]

Please fill in: LogP reported for CC(O)(Cn1cncc1F)c1cnc(Oc2ccc(C(F)(F)F)cc2)cc1Br (centres unmarked) = 2.36^[a]

* * *

test: Log P by HPLC on reversed phase columns (EEC directive 79/831 Annex V.A8; methods [a], [b], [c]); assay type: physicochemical
Measured Property: LogP

Please fill in: LogP reported for C[Si](C)(C#CC(O)(Cn1cncc1C#N)C1(Cl)CC1)c1ccccc1 (stereo not shown) [I-594] = 3.31^[a]

Please fill in: LogP reported for CC(C)CC#CC(O)(CC1CC1)Cn1cncc1C#N (stereo not shown) [I-451] = 2.52^[a]

Please fill in: LogP reported for N#Cc1ccc(Oc2ccc(C(O)Cn3cncc3Cl)c(Cl)c2)cc1 (stereo not shown) [I-06] = 2.03^[a]

Please fill in: LogP reported for O=C(Cn1cncc1F)c1ccc(Oc2ccc(C(F)(F)F)nc2)nc1C(F)(F)F [IX-130] = 2.16^[a]

Please fill in: LogP reported for N#Cc1cncn1CC(O)(CC1CC1)c1cc(F)cc(Cl)c1 (stereo not shown) [I-497] = 2.54^[a]

Please fill in: LogP reported for CC(O)(Cn1cncc1Br)c1ccc(Oc2ccc(Br)cc2)cc1Cl (stereo not shown) [1-174] = 2.96^[a]

Please fill in: LogP reported for N#Cc1cncn1CC(O)(c1ccc(Br)cc1F)C1CC1 (stereo not shown) [I-404] = 2.62^[a]

Please fill in: LogP reported for N#Cc1cncn1CC(O)c1cnc(Oc2ccc(Br)nc2)cc1C(F)(F)F (stereo not shown) [I-153] = 2.41^[a]

Please fill in: LogP reported for N#Cc1cncn1CC(O)(c1ccc(C#CC2CC2)cc1Cl)C1(F)CC1 (stereo not shown) [I-639] = 3.03^[a]

Please fill in: LogP reported for CC(O)(Cn1cncc1C#N)c1ccc(Oc2ccc(C(F)(F)F)cc2)cc1C(F)(F)F (stereo not shown) [I-206] = 3.64^[a]
